Value source: ChEMBL document CHEMBL3988442

Target: Histidine--tRNA ligase (Leishmania infantum)
Experiment: Leishmania infantum Histidine tRNA synthetase (LdHisRS)
Format: functional
Parameters: scale not given: in the data most compounds retested in dose-response had high values
Details: 30 µM
Screen size: about 69,000 compounds; about 420 (0.61%) showed an effect of 50% or more. Shown is part of a subset that was picked to be rich in strong results.
Please respond with fulfilled when measured Percent Effect is strictly beneath 20%, and with not fulfilled in all other cases.

Before answering, review these 10 worked examples.
compound	tgt	cat
Cc1nc(CN2CCCC2c2noc(C3CC3)n2)nc2ccccc12 (stereo unspecified)	Histidine--tRNA ligase (Leishmania infantum)	not fulfilled
Cc1nc(C)n(CC2CCCN2Cc2nc3ccccc3nc2C)n1 (stereo unspecified)	Histidine--tRNA ligase (Leishmania infantum)	fulfilled
CS(=O)(=O)N1C[C@@H]2COC[C@]2(COCC(=O)N2CCCC2)C1	Histidine--tRNA ligase (Leishmania infantum)	fulfilled
Cc1ccc(CN2CC[C@@H]3[C@@H](CO[C@H]3CN3CCN(C)CC3)C2)s1	Histidine--tRNA ligase (Leishmania infantum)	fulfilled
COc1ccc(CC(=O)N2CC[C@@H]3NC(=O)CC[C@@H]32)cc1	Histidine--tRNA ligase (Leishmania infantum)	fulfilled
O=C(NC[C@]12COC[C@H]1CN(Cc1nccs1)C2)c1ccccc1	Histidine--tRNA ligase (Leishmania infantum)	fulfilled
Cc1nc(CN2CCCC2c2ccsc2)nc2ccccc12 (stereo unspecified)	Histidine--tRNA ligase (Leishmania infantum)	not fulfilled
COCCN1CCC(C)(c2cc(O)[nH]n2)CC1	Histidine--tRNA ligase (Leishmania infantum)	not fulfilled
CN(C)C[C@@H]1C[C@@H]2CN(C(=O)Cc3cccs3)CC[C@@H]2N1C	Histidine--tRNA ligase (Leishmania infantum)	fulfilled
Cc1ccc(CN2CCN(Cc3nccn3C)[C@H]3CS(=O)(=O)C[C@H]32)o1	Histidine--tRNA ligase (Leishmania infantum)	fulfilled

# input for lookup
Identify whether the compound Cc1nc(C)n(CC2CCCN2Cc2nc(N)c3ccccc3n2)n1 (stereo unspecified) records Percent Effect below 20%.
not fulfilled

* * *

Molecular target: Histidine--tRNA ligase (Leishmania infantum) (UniProt A4I591)
Sequence (A4I591 as listed by the source): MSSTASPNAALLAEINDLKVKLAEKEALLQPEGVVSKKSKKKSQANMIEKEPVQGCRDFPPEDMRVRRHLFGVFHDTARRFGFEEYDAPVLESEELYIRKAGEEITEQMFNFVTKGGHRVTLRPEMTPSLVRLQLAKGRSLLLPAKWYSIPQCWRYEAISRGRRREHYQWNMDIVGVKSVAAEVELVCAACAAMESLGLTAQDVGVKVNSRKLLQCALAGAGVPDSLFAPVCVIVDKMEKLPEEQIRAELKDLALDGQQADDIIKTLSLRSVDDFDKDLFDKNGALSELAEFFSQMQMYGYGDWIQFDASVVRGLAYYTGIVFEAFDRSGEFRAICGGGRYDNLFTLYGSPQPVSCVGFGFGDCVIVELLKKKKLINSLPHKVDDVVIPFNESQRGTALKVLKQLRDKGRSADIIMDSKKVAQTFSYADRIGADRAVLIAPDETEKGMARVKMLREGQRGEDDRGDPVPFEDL
Assay: Leishmania infantum Histidine tRNA synthetase (LdHisRS)
Type: functional
Set-up: scale not given: in the data most compounds retested in dose-response had high values
Details: 30 µM
Screen size: about 69,000 compounds; about 420 (0.61%) showed an effect of 50% or more. This is one part of a sample in which strong results are shown more often than they occur.
Labelling: Percent Effect reported below 20% becomes label 1; at or above becomes label 0.

compound	cat
O=C1CC(c2ccncc2)c2c(c(C(=O)O)cn2-c2ccc(F)cc2)N1 (stereo not given)	label 0
COCCOc1ccc(F)cc1NCc1nc2ccccc2n1C	label 1
CN1[C@H](CN2CCCC2)C[C@@H]2CN(C(=O)c3ccsc3)CC[C@@H]21	label 1

Lab note: Percent Effect threshold 20%. Does this compound come in strictly under it? `COCC(=O)N1CC[C@]2(O)CCN(Cc3cccnc3OC)C[C@@H]2C1`
label 1

Dear colleague, could you confirm whether Percent Effect of `CN1CCCC[C@@H]2[C@H]1[C@@H](c1ccccc1)CCN2C(=O)c1cnccn1` falls below 20%? Thanks.
label 0

Below 20% on Percent Effect? Entry `CCn1cc(-c2cc(-c3ccn(C)c3)nc(N)c2C#N)cc1C#N`
label 1

I wonder whether CN(C)CCn1c(=O)oc2ccc(NC(=O)C3CCCO3)cc21 (stereo not given) has Percent Effect below 20%. Can you tell?
label 0

Quick check: Percent Effect of `Cn1cc(NS(=O)(=O)c2ccc(OC(F)(F)F)cc2)ccc1=O` under 20%?
label 0

Determine whether this compound shows Percent Effect lower than 20% (ties excluded): `CC(C)NC(=O)N1CC[C@H]2N(C)CC[C@@]2(C(=O)Nc2cccnc2)CC1`
label 1

Lab note: confirm whether the reported Percent Effect for this compound is below 20%, equality not counting. compound: `O=C1[C@H]2CN(S(=O)(=O)C3CC3)C[C@H]2CN1Cc1cccnc1`
label 1

Check if Percent Effect falls below 20% for Cn1c(=O)c2c(n3ncnc13)NC(=O)CC2c1ccc(F)cc1 (stereo not given) .
label 1

Take the compound O=C1CC(c2ccc(C(=O)O)cc2)c2ncn(-c3cccnc3)c2N1 (stereo not given) and say whether its Percent Effect is less than 20%.
label 0

For `Cc1nccn1-c1ccc(NS(=O)(=O)c2cnn(C)c2)cn1` , is the recorded Percent Effect below the cut-off of 20%?
label 0

Does the reported Percent Effect of `Cc1cc(=O)n(CC(=O)Nc2ccc(Cl)cc2)nc1C` stay below 20%?
label 1

Please determine if `Cc1ccc(S(=O)(=O)Nc2ccc(-n3nnn(C)c3=O)cc2)cc1` is below 20% in terms of Percent Effect.
label 1

Determine whether this compound shows Percent Effect lower than 20% (ties excluded): N#Cc1ccsc1N1CCC(Sc2ccncc2)C1=O (stereo not given)
label 0

Check if Percent Effect falls below 20% for O=C1CC(c2ccc(C(=O)O)cc2)c2ncn(-c3ccc(F)cc3)c2N1 (stereo not given) .
label 0
